- assayTarget: AChE (Electrophorus electricus, UniProt O42275)
- Sequence (O42275 24-633): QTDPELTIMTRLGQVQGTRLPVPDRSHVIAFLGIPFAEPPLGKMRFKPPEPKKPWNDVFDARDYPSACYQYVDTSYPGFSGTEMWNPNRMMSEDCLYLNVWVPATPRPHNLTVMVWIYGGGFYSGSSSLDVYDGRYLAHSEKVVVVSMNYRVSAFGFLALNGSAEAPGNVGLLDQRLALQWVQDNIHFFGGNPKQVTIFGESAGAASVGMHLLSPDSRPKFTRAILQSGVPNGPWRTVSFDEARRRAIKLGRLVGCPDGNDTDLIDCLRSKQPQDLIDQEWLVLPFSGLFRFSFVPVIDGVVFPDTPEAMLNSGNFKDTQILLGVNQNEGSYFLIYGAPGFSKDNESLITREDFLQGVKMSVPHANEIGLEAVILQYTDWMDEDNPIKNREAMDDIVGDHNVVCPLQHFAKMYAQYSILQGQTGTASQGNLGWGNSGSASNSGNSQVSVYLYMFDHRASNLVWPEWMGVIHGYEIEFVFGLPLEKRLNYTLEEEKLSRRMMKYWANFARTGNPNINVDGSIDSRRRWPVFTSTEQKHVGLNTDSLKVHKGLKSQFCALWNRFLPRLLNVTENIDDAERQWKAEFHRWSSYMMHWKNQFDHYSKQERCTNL
- assayProtocol: Enzyme kinetics of AChE inhibition
- Assay type: biochemical
endpoint: type of inhibition

See these solved cases before continuing.
CCOc1cccc(-c2nnc(Cn3c(SCC)nc4ccccc43)o2)c1O : noncompetitive
CCSc1nc2ccccc2n1Cc1nnc(-c2ccc(OC)cc2)o1 : noncompetitive
CCSc1nc2ccccc2n1Cc1nnc(-c2ccc(Cl)cc2)o1 : noncompetitive
CCSc1nc2ccccc2n1Cc1nnc(-c2ccc(C)cc2)o1 : noncompetitive
CCCCCCCc1nnc(Cn2c(SCC)nc3ccccc32)o1 : noncompetitive
CCSc1nc2ccccc2n1Cc1nnc(-c2ccccc2O)o1 : noncompetitive

Now examine the next entry.
According to the records, this compound CCSc1nc2ccccc2n1Cc1nnc(-c2cccc(OC)c2O)o1 displays type of inhibition of noncompetitive

====

Entries below carry reported pIC50 on AChE EC 3.1.1.7 (Electrophorus electricus, UniProt O42275).
Sequence (O42275 24-633): as above
# pIC50: negative log10 of molar concentration; output just the value

CCSc1nc2ccccc2n1Cc1nnc(-c2ccc(Cl)cc2)o1 : 3.68
CCSc1nc2ccccc2n1Cc1nnc(-c2ccc(C)cc2)o1 : 3.42

Now examine the next entry.
According to the records, this molecule CCSc1nc2ccccc2n1Cc1nnc(-c2ccc(F)c(OC)c2)o1 displays pIC50 of 4.07

====

- assayProtocol: Cytotoxicity: human neutrophil viability assay
- Type: cell-based
- protocolConditions: human
endpoint: viability at 30 min, 200 µg/ml (%)
Give the number; % is assumed, so skip it.

COc1ccc2c3c1O[C@H]1C[C@@H](O)C=C[C@@]31CCN(C)C2 [Galanthamine, reference compound] : 96
CCCCCCCc1nnc(Cn2c(SCC)nc3ccccc32)o1 : 96.1

Now examine the next entry.
According to the records, this molecule CCSc1nc2ccccc2n1Cc1nnc(-c2ccco2)o1 displays viability at 30 min, 200 µg/ml of 100

====

Entries below carry reported IC50 on AChE EC 3.1.1.7 (Electrophorus electricus, UniProt O42275).
Give the number; µM is assumed, so skip it.

According to the records, this molecule CCSc1nc2ccccc2n1Cc1nnc(-c2ccc(O)cc2O)o1 displays IC50 of 1190

According to the records, this molecule CCSc1nc2ccccc2n1Cc1nnc(-c2ccc(C)o2)o1 displays IC50 of 97.9

According to the records, this molecule CCCCCCCc1nnc(Cn2c(SCC)nc3ccccc32)o1 displays IC50 of 41.9

According to the records, this molecule CCSc1nc2ccccc2n1Cc1nnc(-c2ccccc2Cl)o1 displays IC50 of 118

According to the records, this molecule CCSc1nc2ccccc2n1Cc1nnc(-c2ccc(OC)c(OC)c2)o1 displays IC50 of 692

According to the records, this molecule CCSc1nc2ccccc2n1Cc1nnc(-c2cccc(OC)c2O)o1 displays IC50 of 249

According to the records, this molecule CCSc1nc2ccccc2n1Cc1nnc(-c2ccccc2OC)o1 displays IC50 of 292

According to the records, this molecule CCSc1nc2ccccc2n1Cc1nnc(-c2cc(OC)c(OC)c(OC)c2)o1 displays IC50 of 1580

According to the records, this molecule CCSc1nc2ccccc2n1Cc1nnc(-c2ccc(F)cc2)o1 displays IC50 of 130

====

- assayTarget: AChE (Electrophorus electricus)
pKi: −log10 of the molar value.
Binary classification by pKi, with 4 as an inclusive lower bound for yes (1); all other cases are no (0).

Use the examples below as a reference point.
CCSc1nc2ccccc2n1Cc1nnc(-c2ccc(C)cc2)o1 [Compound 34] : no (0)
CCSc1nc2ccccc2n1Cc1nnc(-c2ccc(OC)cc2)o1 [Compound 20] : no (0)
CCSc1nc2ccccc2n1Cc1nnc(-c2ccc(C)o2)o1 [Compound 22] : yes (1)
CCSc1nc2ccccc2n1Cc1nnc(-c2ccccc2Cl)o1 [Compound 23] : yes (1)
CCSc1nc2ccccc2n1Cc1nnc(-c2ccc(O)cc2)o1 [Compound 26] : yes (1)
CCSc1nc2ccccc2n1Cc1nnc(-c2ccc([N+](=O)[O-])cc2)o1 [Compound 28] : no (0)

Input line: Is reported pKi greater than or equal to 4 here: CCSc1nc2ccccc2n1Cc1nnc(-c2cccc(O)c2)o1 [Compound 32]
Output line: no (0)

Input line: Is reported pKi greater than or equal to 4 here: CCSc1nc2ccccc2n1Cc1nnc(-c2ccc(F)c(OC)c2)o1 [Compound 29]
Output line: yes (1)

Input line: Is reported pKi greater than or equal to 4 here: CCCCCCCc1nnc(Cn2c(SCC)nc3ccccc32)o1 [Compound 16]
Output line: yes (1)

Input line: Is reported pKi greater than or equal to 4 here: CCSc1nc2ccccc2n1Cc1nnc(-c2ccc(O)cc2O)o1 [Compound 30]
Output line: no (0)

Input line: Is reported pKi greater than or equal to 4 here: CCSc1nc2ccccc2n1Cc1nnc(-c2ccc(F)cc2)o1 [Compound 15]
Output line: yes (1)

Input line: Is reported pKi greater than or equal to 4 here: CCSc1nc2ccccc2n1Cc1nnc(-c2ccco2)o1 [Compound 17]
Output line: yes (1)

Input line: Is reported pKi greater than or equal to 4 here: CCSc1nc2ccccc2n1Cc1nnc(-c2ccc(OC)c(OC)c2)o1 [Compound 24]
Output line: no (0)

Input line: Is reported pKi greater than or equal to 4 here: CCSc1nc2ccccc2n1Cc1nnc(-c2cc(OC)c(OC)c(OC)c2)o1 [Compound 27]
Output line: no (0)
